Measured melting point by item

Below, each entry is followed by its recorded melting point result.
compound: Cc1ccc(S(=O)(=O)N(C(N)=O)c2cccc(Br)n2)cc1
recordedResult: > 310 °C

compound: Cn1ncnc1COc1nn2c(-c3ccccc3F)nncc2c1-c1ccc(F)cc1
recordedResult: 192 °C

compound: CC1(c2[nH]c3ccccc3c2C2=C(Cl)C(=O)C=C(Cl)C2=O)CC1
recordedResult: 170 to 171 °C

compound: CC(C(=O)N1CCCc2ccccc21)N(C(=O)CN1C(=O)c2ccccc2C1=O)c1ccccc1 (racemic)
recordedResult: 191 °C

compound: O=[N+]([O-])c1ccccc1NC(CO)c1c(Cl)cccc1Cl (centres undefined)
recordedResult: 128 °C

Indicate its recorded melting point; the compound in question is CCCCCCCCCCOC(=O)c1nc(-c2ccc(Cl)cc2)c(F)c(N)c1Cl
62 to 63 °C

Indicate its recorded melting point; the compound in question is CC(=O)c1c(C)nc2c(OCc3c(Cl)ccc(S(=O)(=O)N4CCC[C@H]4C(=O)NCCCNC(=O)c4ccc(C#N)cc4)c3Cl)cccn12
100 to 102 °C

Indicate its recorded melting point; the compound in question is CC(=O)Oc1cccc(C(Br)C(Br)c2ccccc2)c1 (centres undefined)
156 to 157 °C

Indicate its recorded melting point; the compound in question is CCOc1cc2c(C)c(CCN3CCC(c4ccccc4)CC3)c(=O)oc2cc1OC
195 to 196 °C

###

Measured melting point by item

compound: Fc1ccc(-c2cncc(CNCCOc3cccc4ccccc34)c2)cc1
melting point: 92 to 94 °C
--
compound: CCO/C=C/C(=O)Nc1cccc(Br)c1OC
melting point: 102 to 104 °C
--
compound: COc1ccc2c(c1)cc(-c1nnn(Cc3cccc(OCc4ccc5ccccc5n4)c3)n1)c(=O)n2C
melting point: 125 to 127 °C

Indicate its recorded melting point; the compound in question is CCCCOc1c(CNC(=O)OC(C)(C)C)n(CC2CC2)c(=O)c2ccc(-c3cnco3)cc12
160 to 161 °C

Indicate its recorded melting point; the compound in question is COC(=O)C(=CN(C)C)c1cc(F)cc(F)c1
97 °C

Indicate its recorded melting point; the compound in question is Cc1ccc(S(=O)(=O)OCC2(C)Cc3cc(Cl)cc(O)c3O2)cc1 (stereo not given)
135 to 137 °C

Indicate its recorded melting point; the compound in question is O=c1ccc(S(=O)(=O)c2cc3c(=O)[nH]ccc3o2)n[nH]1
> 275 °C

###

Measured melting point by item

Below, each entry is followed by its recorded melting point result.
compoundString: Nc1nccc(OCCc2ccccc2)c1[N+](=O)[O-]
melting point: 131 to 132 °C
//
compoundString: C#CCOc1cc(-c2ncc(C(F)(F)F)cc2Cl)c(F)cc1Cl
melting point: 97 to 98 °C
//
compoundString: COc1cc(Cl)c2c(=O)c(N3CCCCC3)coc2c1
melting point: 122 to 125 °C
//
compoundString: CCCCc1nn(-c2ccccc2Cl)c(=O)n1Cc1ccc(-c2ccccc2S(=O)(=O)NC(=O)c2ccc(F)cc2)cc1
melting point: 118 to 120 °C

Indicate its recorded melting point; the compound in question is COCn1ccnc1C(O)(c1ccc(C(F)(F)F)cc1)c1ccc(C(F)(F)F)cc1
160 to 161 °C

###

measuredEndpoint: melting point

Indicate its recorded melting point; the compound in question is COc1ccc(C(C)=O)c(CC(=O)O)c1
153 to 155 °C

Indicate its recorded melting point; the compound in question is NC(=O)c1c(F)cccc1C(F)(F)F
143 to 144 °C

Indicate its recorded melting point; the compound in question is COC(=O)c1ccc(N(C)C)cc1C(=O)OC
54 to 57 °C

Indicate its recorded melting point; the compound in question is C#CCN1CCCc2ccc(OC(=O)NCCCCCCC)cc21
54 °C
